In this section, each of the compounds is paired with its reported selectivity ratio.
Assay: Ratio of IC50 for dark toxicity in human HepG2 cells to IC50 for photo cytotoxic activity against human HepG2 cells irradiated with 1.7 J/cm'2 light dose
Format: cell-based
Details: read-out: Ratio IC50
Enter the number alone.

Below, 2 compounds whose answers are already recorded.
C=Cc1c(C)c2cc3nc(c(CC(=O)OC)c4[nH]c(cc5nc(cc1[nH]2)C(C)=C5CC)c(C)c4C(=O)NCCN1C(=O)C=CC1=O)[C@@H](CCC(=O)OC)[C@@H]3C ... 4.9
C=Cc1c(C)c2cc3nc(c4c5[nH]c(cc6nc(cc1[nH]2)C(C)=C6CC)c(C)c5C(=O)[C@@H]4C(=O)OC)[C@@H](CCC(=O)NCCN1C(=O)CC(SC[C@H](N)C(=O)O)C1=O)[C@@H]3C (stereo partly drawn) ... 4.5

Switching to the query record.
Qu. // fetch selectivity ratio given entry C=Cc1c(C)c2cc3nc(c4c5[nH]c(cc6nc(cc1[nH]2)C(C)=C6CC)c(C)c5C(=O)[C@@H]4C(=O)OC)[C@@H](CCC(=O)NCCN1C(=O)CC(SC[C@H](NC(=O)CC[C@H](N)C(=O)O)C(=O)NCC(=O)O)C1=O)[C@@H]3C (stereo partly drawn)
Ans. 2.6
